Assign Tm to each entry below.
Experiment: melting temperature; UV melt of duplexes
Details: sodium 0.12 M; strand 6 µM
Enter your answer as a number in °C; do not include the unit.

Prompt: State its Tm: ATATATATAGCTTTTTTTTT+AAAAAAAAAGCTATATATAT ((((((((((((((((((((+))))))))))))))))))))
Completion: 44.3

Prompt: State its Tm: AACGCGCGTAGAGTAATTATAA+TTATAATTACTCTACGCGCGTT ((((((((((((((((((((((+))))))))))))))))))))))
Completion: 65

Prompt: State its Tm: AATATATGAATTCTAATTAA+TTAATTAGAATTCATATATT ((((((((((((((((((((+))))))))))))))))))))
Completion: 44.7

Prompt: State its Tm: AACGCGCGTGAATTCTGGCCGCAA+TTGCGGCCAGAATTCACGCGCGTT ((((((((((((((((((((((((+))))))))))))))))))))))))
Completion: 75.8

Prompt: State its Tm: AAAAAAAAGAATTCTTTTTTTT+AAAAAAAAGAATTCTTTTTTTT ((((((((((((((((((((((+))))))))))))))))))))))
Completion: 49.9
